Cited source for all entries: patent US20170008955A1

target: T1, cSNK:BSA conjugate (bovine, head-to-tail cyclized; conjugated to BSA carrier); test: BLI (Octet), KD1
T1 construct: also called BSA-cSNK
T1 sequence (P02769 25-607 limits assumed): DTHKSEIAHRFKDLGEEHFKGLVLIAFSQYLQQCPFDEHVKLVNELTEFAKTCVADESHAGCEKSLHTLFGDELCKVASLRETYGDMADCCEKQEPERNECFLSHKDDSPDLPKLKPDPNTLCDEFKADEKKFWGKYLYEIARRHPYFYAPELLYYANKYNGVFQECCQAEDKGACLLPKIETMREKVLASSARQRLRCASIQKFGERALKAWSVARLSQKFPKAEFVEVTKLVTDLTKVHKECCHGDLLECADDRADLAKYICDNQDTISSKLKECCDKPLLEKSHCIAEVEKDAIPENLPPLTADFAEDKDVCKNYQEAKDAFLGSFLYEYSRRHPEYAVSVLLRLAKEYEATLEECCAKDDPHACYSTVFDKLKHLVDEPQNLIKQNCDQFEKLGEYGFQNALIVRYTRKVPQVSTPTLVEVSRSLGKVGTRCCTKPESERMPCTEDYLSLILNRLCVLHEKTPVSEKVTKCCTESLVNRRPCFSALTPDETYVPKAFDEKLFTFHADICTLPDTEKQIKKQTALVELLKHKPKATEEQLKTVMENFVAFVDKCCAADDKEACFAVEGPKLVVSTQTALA
Assignment: determine reported Kd for the given binders.
Write down the numeric answer in nM and omit the unit.

In: # input binder: 5E3HCDR3-E255D (antibody, IgG1, V domains shown, hu5E3 IgG1 vector mutant; same change as 5E3HCDR3-E209D; also called 5E3-E255D-AFF) VH: QVQLQQSGPEVKKPGASVKISCKASGYIFTSYYIQWVIHAPGQGLEWIGWIYPGNVNTKYNEKFKGKATLTADKSSSTAYMELSSLTSEDTAVYFCARMDYDAHYWGQGTTVTVSS VL: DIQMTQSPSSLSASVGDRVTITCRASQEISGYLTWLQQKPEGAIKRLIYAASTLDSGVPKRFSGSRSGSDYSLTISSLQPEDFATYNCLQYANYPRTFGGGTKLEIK ; wanted: its Kd
Out: 0.0333

In: # input binder: 5E3KCDR3-L89I + 5E3HCDR3-Y212F (antibody, IgG1, V domains shown, double combination in hu5E3 IgG1) VH: QVQLQQSGPEVKKPGASVKISCKASGYIFTSYYIQWVIHAPGQGLEWIGWIYPGNVNTKYNEKFKGKATLTADKSSSTAYMELSSLTSEDTAVYFCARMDYEAHFWGQGTTVTVSS VL: DIQMTQSPSSLSASVGDRVTITCRASQEISGYLTWLQQKPEGAIKRLIYAASTLDSGVPKRFSGSRSGSDYSLTISSLQPEDFATYNCIQYANYPRTFGGGTKLEIK ; wanted: its Kd
Out: 0.021

In: # input binder: 5E3KCDR3-N93Q (antibody, IgG1, V domains shown, hu5E3 IgG1 vector mutant) VH: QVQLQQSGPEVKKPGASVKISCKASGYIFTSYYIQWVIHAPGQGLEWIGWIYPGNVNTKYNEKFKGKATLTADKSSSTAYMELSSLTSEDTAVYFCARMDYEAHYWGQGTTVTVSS VL: DIQMTQSPSSLSASVGDRVTITCRASQEISGYLTWLQQKPEGAIKRLIYAASTLDSGVPKRFSGSRSGSDYSLTISSLQPEDFATYNCLQYAQYPRTFGGGTKLEIK ; wanted: its Kd
Out: 9.12

In: # input binder: 5E3KCDR3-L89I + 5E3HCDR3-E209Q (antibody, IgG1, V domains shown, double combination in hu5E3 IgG1) VH: QVQLQQSGPEVKKPGASVKISCKASGYIFTSYYIQWVIHAPGQGLEWIGWIYPGNVNTKYNEKFKGKATLTADKSSSTAYMELSSLTSEDTAVYFCARMDYQAHYWGQGTTVTVSS VL: DIQMTQSPSSLSASVGDRVTITCRASQEISGYLTWLQQKPEGAIKRLIYAASTLDSGVPKRFSGSRSGSDYSLTISSLQPEDFATYNCIQYANYPRTFGGGTKLEIK ; wanted: its Kd
Out: 19.8

In: # input binder: 5E3HCDR2-K212D (antibody, IgG1, V domains shown, hu5E3 IgG1 vector mutant; also called 5E3-K212D-AFF) VH: QVQLQQSGPEVKKPGASVKISCKASGYIFTSYYIQWVIHAPGQGLEWIGWIYPGNVNTDYNEKFKGKATLTADKSSSTAYMELSSLTSEDTAVYFCARMDYEAHYWGQGTTVTVSS VL: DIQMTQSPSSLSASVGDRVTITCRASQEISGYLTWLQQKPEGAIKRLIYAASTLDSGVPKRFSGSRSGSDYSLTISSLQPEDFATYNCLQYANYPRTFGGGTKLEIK ; wanted: its Kd
Out: 0.0171

In: # input binder: 5E3HCDR3-Y208F (antibody, IgG1, V domains shown, hu5E3 IgG1 vector mutant) VH: QVQLQQSGPEVKKPGASVKISCKASGYIFTSYYIQWVIHAPGQGLEWIGWIYPGNVNTKYNEKFKGKATLTADKSSSTAYMELSSLTSEDTAVYFCARMDFEAHYWGQGTTVTVSS VL: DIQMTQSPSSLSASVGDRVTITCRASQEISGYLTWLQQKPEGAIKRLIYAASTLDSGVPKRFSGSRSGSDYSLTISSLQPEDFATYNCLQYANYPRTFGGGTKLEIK ; wanted: its Kd
Out: 21.5
